The measured values listed here are drawn from PubChem BioAssay (NCATS).

Tested on: GB4
assayName: qHTS profiling for inhibitors of Plasmodium falciparum proliferation (AID 504749); further: nearly all actives have a fitted effect of over 60% in size; further: potency means the concentration at half of the fitted maximal effect
conditionsUsed: P. falciparum in erythrocytes, SYBR Green DNA, 72 h; series mostly up to 28.7 µM
Results filed as inconclusive are left out. Activity calls are given as the source filed them. The call rests on the fitted dose curve; in most records, active means well fitted inhibition curve with a large enough effect; inconclusive means small, poorly fitted or top-dose-only effect; inactive means flat fitted curve, though single readings scatter.
valueType: Potency

Some compounds with known Potency results, for comparison:
INSERT INTO measurements (compound, valuemeasured) VALUES
  ('Cc1cc(C)c(/C=C2\C(=O)Nc3ccccc32)[nH]1', 'inactive'),
  ('CC1=C(C)C(=O)C(CCCCC#CCCCC#CCO)=C(C)C1=O', '7.57 µM (active)'),
  ('CSc1ccc(C(=O)c2[nH]c(=O)[nH]c2C)cc1', 'inactive'),
  ('OCCN1CCN(CC/C=C2/c3ccccc3Sc3ccc(C(F)(F)F)cc32)CC1', '6.75 µM (active)'),
  ('Cc1nc2c([nH]1)c(=O)n(C)c(=O)n2Cc1ccco1', 'inactive');

Now for another entry.
Q: I have this compound here, CN(C)C(=O)Oc1cccc([N+](C)(C)C)c1 , and I need its recorded Potency.
A: inactive

###

Tested on: ICS
assayName: qHTS profiling for inhibitors of Plasmodium falciparum proliferation (AID 504749); further: nearly all actives have a fitted effect of over 60% in size; further: potency means the concentration at half of the fitted maximal effect
conditionsUsed: P. falciparum in erythrocytes, SYBR Green DNA, 72 h; series mostly up to 28.7 µM
Records with an inconclusive call do not appear. Activity calls are given as the source filed them. The call rests on the fitted dose curve; in most records, active means well fitted inhibition curve with a large enough effect; inconclusive means small, poorly fitted or top-dose-only effect; inactive means flat fitted curve, though single readings scatter.
valueType: Potency

Some molecules with known Potency results, for comparison:
INSERT INTO measurements (molecule, valuetype, valuemeasured) VALUES
  ('C[N+](C)(C)CCOC(=O)CCC(=O)OCC[N+](C)(C)C', 'Potency', 'inactive'),
  ('CCCCCN(CCCCC)C(=O)C(CCC(=O)O)NC(=O)c1ccc(Cl)c(Cl)c1 (configuration not stated)', 'Potency', 'inactive'),
  ('CC1=NS(=O)(=O)c2cc(Cl)ccc2N1', 'Potency', 'inactive'),
  ('CN(C)CCCN1c2ccccc2Sc2ccc(C(F)(F)F)cc21', 'Potency', '10 µM (active)'),
  ('CCCCNC(=O)NS(=O)(=O)c1ccc(C)cc1', 'Potency', 'inactive');

Q: Form field - read-out: Potency; system: ICS; submitted item: CC(=O)[C@@]1(O)CC[C@H]2[C@@H]3CCC4=CC(=O)CC[C@]4(C)[C@H]3CC[C@@]21C
A: inactive

Q: Form field - read-out: Potency; system: ICS; submitted item: FC(F)(F)c1ccccc1-n1ccnc1
A: inactive

Q: Form field - read-out: Potency; system: ICS; submitted item: CCN1CCc2nc(N)oc2CC1
A: inactive

Q: Form field - read-out: Potency; system: ICS; submitted item: C=CCc1ccccc1OCC(O)CNC(C)C (configuration not stated)
A: 11.2 µM (active)

Q: Form field - read-out: Potency; system: ICS; submitted item: O=C(CCCN1CCC(O)(c2cccc(C(F)(F)F)c2)CC1)c1ccc(F)cc1
A: 5.01 µM (active)

Q: Form field - read-out: Potency; system: ICS; submitted item: COC(=O)[C@@H](N)Cc1ccc(O)c(O)c1
A: inactive

Q: Form field - read-out: Potency; system: ICS; submitted item: NC(N)=NC(=O)Cc1c(Cl)cccc1Cl
A: 7.94 µM (active)

###

assayName: qHTS for Inhibitors of ATXN expression: Validation (AID 588378); further: nearly all actives have a fitted effect of over 75% in size
conditionsUsed: cell-based ATXN2 expression reporter assay, luminescence; series mostly up to 57.1 µM
Inconclusive results are not listed. Active and inactive are the calls of the source. The call rests on the fitted dose curve; in most records, active means well fitted inhibition curve with a large enough effect; inconclusive means small, poorly fitted or top-dose-only effect; inactive means no such curve, though single readings can be large or run the other way.
Lab note: assign the record to one of 1 (yes) (active), 0 (no) (inactive)

Q: For this molecule, state the assay outcome: COCC(=O)O[C@]1(CCN(C)CCCc2nc3ccccc3[nH]2)CCc2cc(F)ccc2[C@@H]1C(C)C
A: 1 (yes)

Q: For this molecule, state the assay outcome: NC(=O)c1cn(Cc2c(F)cccc2F)nn1
A: 0 (no)

Q: For this molecule, state the assay outcome: CO[C@@]1(NC(=O)CSCC#N)C(=O)N2C(C(=O)O)=C(CSc3nnnn3C)CS[C@@H]21
A: 0 (no)

Q: For this molecule, state the assay outcome: CCN(Cc1ccncc1)C(=O)C(CO)c1ccccc1 (stereo not given)
A: 0 (no)

Q: For this molecule, state the assay outcome: CC1=C(C)C(=O)C(CCCCC#CCCCC#CCO)=C(C)C1=O
A: 1 (yes)
